# Tested on: MDA-MB-435
# experimental-details: Growth inhibition of human MDA-MB-435 cells after 48 hrs by SRB staining method
# Assay type: functional
# condition-description: MDA-MB-435, 48 h, read-out: pLC50 (the source's name) (converted)
property-measured: CC50

{"compound": "COc1cc(Nc2nc3cc(N)cc(N)c3nc2-c2ccccc2)cc(OC)c1", "property-measured": "CC50", "val": "49 µM"}
{"compound": "COc1ccc(Nc2nc3cc(N)cc(N)c3nc2-c2ccccc2)cc1", "property-measured": "CC50", "val": "55 µM"}
{"compound": "CCOC(=O)CCC(NC(=O)c1ccc(Nc2nc3cc(N)cc(N)c3nc2-c2ccccc2)cc1)C(=O)OCC (configuration not stated)", "property-measured": "CC50", "val": "> 100 µM"}
{"compound": "Nc1cc(N)c2nc(-c3ccccc3)c(Nc3ccc(F)cc3)nc2c1", "property-measured": "CC50", "val": "50.1 µM"}
{"compound": "Nc1cc(N)c2nc(-c3ccccc3)c(Nc3ccc(Cl)c(Cl)c3)nc2c1", "property-measured": "CC50", "val": "9.77 µM"}
{"compound": "COc1ccc(Nc2nc3cc(N)cc(N)c3nc2-c2ccccc2)cc1OC", "property-measured": "CC50", "val": "63.1 µM"}
{"compound": "COc1cc(Nc2nc3cc(N)cc(N)c3nc2-c2ccccc2)cc(OC)c1OC", "property-measured": "CC50", "val": "69.2 µM"}

----------
In this section we review reported GI50 values for a set of compounds.
# Test system: T47D
# experimental-details: Growth inhibition of human T47D cells after 48 hrs by SRB staining method
# Format: functional

{"compound": "COc1cc(Nc2nc3cc(N)cc(N)c3nc2-c2ccccc2)cc(OC)c1", "GI50": "4.47 µM"}
{"compound": "Nc1cc(N)c2nc(-c3ccccc3)c(Nc3ccc(Cl)c(Cl)c3)nc2c1", "GI50": "11.5 µM"}
{"compound": "COc1ccc(Nc2nc3cc(N)cc(N)c3nc2-c2ccccc2)cc1", "GI50": "17.8 µM"}
{"compound": "COc1ccc(Nc2nc3cc(N)cc(N)c3nc2-c2ccccc2)cc1OC", "GI50": "14.5 µM"}
{"compound": "CCOC(=O)CCC(NC(=O)c1ccc(Nc2nc3cc(N)cc(N)c3nc2-c2ccccc2)cc1)C(=O)OCC (stereo unspecified)", "GI50": "1.66 µM"}
{"compound": "COc1cc(Nc2nc3cc(N)cc(N)c3nc2-c2ccccc2)cc(OC)c1OC", "GI50": "6.03 µM"}

----------
# Test system: SK-MEL-28
# experimental-details: Growth inhibition of human SK-MEL-28 cells after 48 hrs by SRB staining method
# Type: functional
# condition-description: SK-MEL-28, 48 h, read-out: pLC50 (the source's name) (converted)

{"molecule": "Nc1cc(N)c2nc(-c3ccccc3)c(Nc3ccc(Cl)c(Cl)c3)nc2c1", "CC50": "> 100 µM"}
{"molecule": "Nc1cc(N)c2nc(-c3ccccc3)c(Nc3ccc(F)cc3)nc2c1", "CC50": "75.9 µM"}
{"molecule": "COc1ccc(Nc2nc3cc(N)cc(N)c3nc2-c2ccccc2)cc1OC", "CC50": "> 100 µM"}
{"molecule": "CCOC(=O)CCC(NC(=O)c1ccc(Nc2nc3cc(N)cc(N)c3nc2-c2ccccc2)cc1)C(=O)OCC (configuration not stated)", "CC50": "5.89 µM"}
{"molecule": "COc1cc(Nc2nc3cc(N)cc(N)c3nc2-c2ccccc2)cc(OC)c1OC", "CC50": "63.1 µM"}
{"molecule": "COc1ccc(Nc2nc3cc(N)cc(N)c3nc2-c2ccccc2)cc1", "CC50": "55 µM"}
{"molecule": "COc1cc(Nc2nc3cc(N)cc(N)c3nc2-c2ccccc2)cc(OC)c1", "CC50": "> 100 µM"}

----------
# System: UACC-257
# experimental-details: Growth inhibition of human UACC257 cells after 48 hrs by SRB staining method
# Type: functional
# condition-description: UACC-257, 48 h

{"molecule": "COc1ccc(Nc2nc3cc(N)cc(N)c3nc2-c2ccccc2)cc1OC", "GI50, µM": 35.5}
{"molecule": "CCOC(=O)CCC(NC(=O)c1ccc(Nc2nc3cc(N)cc(N)c3nc2-c2ccccc2)cc1)C(=O)OCC (configuration not stated)", "GI50, µM": 2}
{"molecule": "COc1cc(Nc2nc3cc(N)cc(N)c3nc2-c2ccccc2)cc(OC)c1", "GI50, µM": 15.8}
{"molecule": "COc1cc(Nc2nc3cc(N)cc(N)c3nc2-c2ccccc2)cc(OC)c1OC", "GI50, µM": 29.5}
{"molecule": "COc1ccc(Nc2nc3cc(N)cc(N)c3nc2-c2ccccc2)cc1", "GI50, µM": 15.1}
{"molecule": "Nc1cc(N)c2nc(-c3ccccc3)c(Nc3ccc(F)cc3)nc2c1", "GI50, µM": 15.1}
{"molecule": "Nc1cc(N)c2nc(-c3ccccc3)c(Nc3ccc(Cl)c(Cl)c3)nc2c1", "GI50, µM": 11.5}

----------
# System: A498
# experimental-details: Growth inhibition of human A498 cells after 48 hrs by SRB staining method
# Assay type: functional
# condition-description: A498, 48 h, read-out: pTGI (converted)
property-measured: TGI

{"chemical-smiles": "COc1cc(Nc2nc3cc(N)cc(N)c3nc2-c2ccccc2)cc(OC)c1OC", "target-desc": "A498", "val": "> 100 µM"}
{"chemical-smiles": "COc1ccc(Nc2nc3cc(N)cc(N)c3nc2-c2ccccc2)cc1OC", "target-desc": "A498", "val": "56.2 µM"}
{"chemical-smiles": "COc1cc(Nc2nc3cc(N)cc(N)c3nc2-c2ccccc2)cc(OC)c1", "target-desc": "A498", "val": "22.4 µM"}
{"chemical-smiles": "COc1ccc(Nc2nc3cc(N)cc(N)c3nc2-c2ccccc2)cc1", "target-desc": "A498", "val": "> 100 µM"}
{"chemical-smiles": "Nc1cc(N)c2nc(-c3ccccc3)c(Nc3ccc(Cl)c(Cl)c3)nc2c1", "target-desc": "A498", "val": "26.3 µM"}
{"chemical-smiles": "Nc1cc(N)c2nc(-c3ccccc3)c(Nc3ccc(F)cc3)nc2c1", "target-desc": "A498", "val": "20 µM"}

----------
# Tested on: COLO 205
# experimental-details: Growth inhibition of human COLO205 cells after 48 hrs by SRB staining method
# Assay type: functional
# condition-description: COLO 205, 48 h

{"compound": "Nc1cc(N)c2nc(-c3ccccc3)c(Nc3ccc(F)cc3)nc2c1", "target-desc": "COLO 205", "GI50": "20.4 µM"}
{"compound": "COc1cc(Nc2nc3cc(N)cc(N)c3nc2-c2ccccc2)cc(OC)c1", "target-desc": "COLO 205", "GI50": "14.5 µM"}
{"compound": "COc1ccc(Nc2nc3cc(N)cc(N)c3nc2-c2ccccc2)cc1", "target-desc": "COLO 205", "GI50": "15.8 µM"}
{"compound": "COc1ccc(Nc2nc3cc(N)cc(N)c3nc2-c2ccccc2)cc1OC", "target-desc": "COLO 205", "GI50": "20 µM"}
{"compound": "CCOC(=O)CCC(NC(=O)c1ccc(Nc2nc3cc(N)cc(N)c3nc2-c2ccccc2)cc1)C(=O)OCC (configuration not stated)", "target-desc": "COLO 205", "GI50": "8.91 µM"}
{"compound": "COc1cc(Nc2nc3cc(N)cc(N)c3nc2-c2ccccc2)cc(OC)c1OC", "target-desc": "COLO 205", "GI50": "14.1 µM"}
{"compound": "Nc1cc(N)c2nc(-c3ccccc3)c(Nc3ccc(Cl)c(Cl)c3)nc2c1", "target-desc": "COLO 205", "GI50": "11.7 µM"}

----------
# Tested on: HT-29
# experimental-details: Growth inhibition of human HT29 cells after 48 hrs by SRB staining method
# Format: functional
# condition-description: HT-29, 48 h, read-out: pTGI (converted)
Entries annotated with measured TGI
property-measured: TGI (µM)

{"chemical-smiles": "COc1cc(Nc2nc3cc(N)cc(N)c3nc2-c2ccccc2)cc(OC)c1", "property-measured": "TGI", "operator": ">", "val": 100}
{"chemical-smiles": "COc1cc(Nc2nc3cc(N)cc(N)c3nc2-c2ccccc2)cc(OC)c1OC", "property-measured": "TGI", "operator": "=", "val": 34.7}
{"chemical-smiles": "COc1ccc(Nc2nc3cc(N)cc(N)c3nc2-c2ccccc2)cc1", "property-measured": "TGI", "operator": "=", "val": 42.7}
{"chemical-smiles": "Nc1cc(N)c2nc(-c3ccccc3)c(Nc3ccc(F)cc3)nc2c1", "property-measured": "TGI", "operator": "=", "val": 35.5}
{"chemical-smiles": "COc1ccc(Nc2nc3cc(N)cc(N)c3nc2-c2ccccc2)cc1OC", "property-measured": "TGI", "operator": "=", "val": 52.5}
